Species: Rattus norvegicus
Method: Open TG-GATES - Regimen: Single
Type: toxicity, organism-based, Sprague-Dawley
Parameters: regimen Single, gender Male, age 6 weeks
Condition description: in vivo, po, 0 mg/kg, 3 h, tissue Plasma, route gavage, dose level Control
Value kind: AST

Molecule smiles	Value kind	Test result
CCO	AST	69 IU/L
CN(C)CCCN1c2ccccc2Sc2ccc(Cl)cc21	AST	78.8 IU/L
CN(C/C=C/C#CC(C)(C)C)Cc1cccc2ccccc12	AST	72.4 IU/L

Pending molecule:
Item Nc1ccc(Cc2ccc(N)cc2)cc1 has what recorded AST?
90.8 IU/L

###

Organism: Rattus norvegicus
Method: Open TG-GATES - Regimen: Daily Repeat
Type: toxicity, organism-based, Sprague-Dawley
Set-up: regimen Daily Repeat, gender Male, age 6 weeks
Condition description: in vivo, po, 0 mg/kg, […], tissue Blood, route gavage, dose level Control, time 7 day
Lab note: anything with APTT below 20 s is marked TRUE; values at 20 s or higher are marked FALSE.

Field: example entries. Status: answers known.
Molecule	Cat
CCCCNC(=O)NS(=O)(=O)c1ccc(C)cc1 [TOLBUTAMIDE]	TRUE
CC(=O)[C@@]1(O)CC[C@H]2[C@@H]3C=C(Cl)C4=CC(=O)CC[C@]4(C)[C@H]3CC[C@@]21C	FALSE
CN(CCOc1ccc(CC2SC(=O)NC2=O)cc1)c1ccccn1.O=C(O)/C=C\C(=O)O (stereo not drawn) [ROSIGLITAZONE MALEATE]	TRUE

is_below(APTT, 20 s) for CC(S)C(=O)NCC(=O)O (stereo not drawn) ?
FALSE

is_below(APTT, 20 s) for Nc1ccc(Cc2ccc(N)cc2)cc1 ?
TRUE

is_below(APTT, 20 s) for NS(=O)(=O)c1cc(C(=O)O)c(NCc2ccco2)cc1Cl [FUROSEMIDE] ?
TRUE

is_below(APTT, 20 s) for CCN(CC)C(=S)SSC(=S)N(CC)CC ?
FALSE

is_below(APTT, 20 s) for CCO ?
TRUE
